Just for reference, patent US8841004B2 is where these values come from.

# PROTOCOL_DETAILS: Solubility in chlorobenzene heated at 130° C.
# Assay type: physicochemical
For each record, write down the corresponding Solubility (chlorobenzene, 130° C.).
One number for each entry, in mg/mL.

Before answering, review these 3 worked examples.
CC1(C)c2ccccc2-c2ccc(-c3ccc4cc(-c5ccc6cc(-c7ccc8c(c7)C(C)(C)c7ccccc7-8)ccc6c5)ccc4c3)cc21; 3.3
CC1(C)c2cc(-c3ccc4c(c3)C(C)(C)c3cc(-c5ccc6ccccc6c5)ccc3-4)ccc2-c2ccc(-c3ccc4c(c3)C(C)(C)c3cc(-c5ccc6ccccc6c5)ccc3-4)cc21; 3.5
CC1(C)c2ccccc2-c2ccc(-c3ccc4c(c3)C(C)(C)c3cc(-c5ccc6c(c5)C(C)(C)c5cc(-c7ccc8cc(-c9ccc%10ccccc%10c9)ccc8c7)ccc5-6)ccc3-4)cc21; 9.4

Proceeding to the next compound to report its Solubility (chlorobenzene, 130° C.).
So what does the record say about Solubility (chlorobenzene, 130° C.) for `CC1(C)c2ccccc2-c2ccc(-c3ccc4c(c3)C(C)(C)c3cc(-c5ccc6cc(-c7ccc8ccccc8c7)ccc6c5)ccc3-4)cc21` ?
16.0
